Cited source: ChEMBL document CHEMBL1149550

Protein target, amino acids: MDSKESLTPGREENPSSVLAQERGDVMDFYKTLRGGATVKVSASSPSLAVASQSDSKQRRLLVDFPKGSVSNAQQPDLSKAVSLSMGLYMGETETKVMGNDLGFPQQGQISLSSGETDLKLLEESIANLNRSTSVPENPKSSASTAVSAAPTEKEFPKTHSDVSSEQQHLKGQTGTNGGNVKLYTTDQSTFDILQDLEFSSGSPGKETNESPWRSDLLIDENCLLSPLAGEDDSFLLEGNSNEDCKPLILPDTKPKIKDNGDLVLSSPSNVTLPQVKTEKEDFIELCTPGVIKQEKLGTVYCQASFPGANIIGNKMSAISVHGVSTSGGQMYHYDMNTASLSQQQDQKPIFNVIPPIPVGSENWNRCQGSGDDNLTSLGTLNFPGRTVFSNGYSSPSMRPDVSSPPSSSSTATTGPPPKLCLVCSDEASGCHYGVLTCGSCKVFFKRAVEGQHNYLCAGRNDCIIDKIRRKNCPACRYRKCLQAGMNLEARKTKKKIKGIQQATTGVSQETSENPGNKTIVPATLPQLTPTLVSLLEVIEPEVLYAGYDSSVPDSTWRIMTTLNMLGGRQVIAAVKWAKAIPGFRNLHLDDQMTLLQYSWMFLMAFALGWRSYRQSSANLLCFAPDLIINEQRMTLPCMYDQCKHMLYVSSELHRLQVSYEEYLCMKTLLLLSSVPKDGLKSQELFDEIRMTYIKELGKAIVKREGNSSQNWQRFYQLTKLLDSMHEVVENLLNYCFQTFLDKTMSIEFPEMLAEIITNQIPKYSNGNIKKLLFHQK
# pKi listing for each entry below
Conceptually, pKi converts a concentration in mol/L into minus its log10.

# annotated cases, reported pKi shown
COc1c(O)ccc2c1-c1ccc3c(c1/C(=C/c1cccc(-c4ccsc4)c1)O2)C(C)=CC(C)(C)N3	8.51
COc1c(O)ccc2c1-c1ccc3c(c1/C(=C/c1ccccc1F)O2)C(C)=CC(C)(C)N3	9.10
COc1c(O)ccc2c1-c1ccc3c(c1/C(=C/c1cccc(-c4cccnc4)c1)O2)C(C)=CC(C)(C)N3	8.82

Next up:
[Q] Which pKi value belongs to COc1ccc(/C=C2\Oc3ccc(O)c(OC)c3-c3ccc4c(c32)C(C)=CC(C)(C)N4)cc1 ?
[A] 8.57

###

# pIC50 listing for each entry below
Molecular target: Glucocorticoid receptor (Homo sapiens, UniProt P04150)
Sequence (P04150 whole entry): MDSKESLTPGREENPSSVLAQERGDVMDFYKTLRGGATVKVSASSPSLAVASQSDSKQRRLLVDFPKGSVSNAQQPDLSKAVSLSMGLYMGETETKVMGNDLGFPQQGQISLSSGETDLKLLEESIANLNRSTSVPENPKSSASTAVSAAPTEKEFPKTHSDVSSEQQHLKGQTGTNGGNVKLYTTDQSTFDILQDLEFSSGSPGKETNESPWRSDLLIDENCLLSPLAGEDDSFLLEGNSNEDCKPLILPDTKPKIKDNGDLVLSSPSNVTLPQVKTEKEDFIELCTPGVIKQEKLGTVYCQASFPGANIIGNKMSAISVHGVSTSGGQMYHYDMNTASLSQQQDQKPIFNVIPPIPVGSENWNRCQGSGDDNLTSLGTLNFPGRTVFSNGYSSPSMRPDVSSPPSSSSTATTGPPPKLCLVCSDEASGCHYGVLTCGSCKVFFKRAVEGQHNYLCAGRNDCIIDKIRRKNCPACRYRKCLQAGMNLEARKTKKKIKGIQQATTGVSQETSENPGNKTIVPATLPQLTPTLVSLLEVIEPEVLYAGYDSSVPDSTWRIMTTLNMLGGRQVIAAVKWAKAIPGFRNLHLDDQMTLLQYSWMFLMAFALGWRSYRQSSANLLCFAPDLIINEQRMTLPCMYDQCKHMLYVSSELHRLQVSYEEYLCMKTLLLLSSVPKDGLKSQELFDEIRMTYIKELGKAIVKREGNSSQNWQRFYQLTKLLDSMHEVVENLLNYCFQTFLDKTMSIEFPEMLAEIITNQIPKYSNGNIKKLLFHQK
Assay type: functional
Description: Antagonist activity at GR assessed as inhibition of dexamethasone-induced GRE activation
Conceptually, pIC50 converts a concentration in mol/L into minus its log10.

[Q] Which pIC50 value belongs to COc1c(O)ccc2c1-c1ccc3c(c1/C(=C/c1cccc(-c4ccccc4)c1)O2)C(C)=CC(C)(C)N3 ?
[A] 8.64

[Q] Which pIC50 value belongs to COc1c(O)ccc2c1-c1ccc3c(c1/C(=C/c1cccc(C)n1)O2)C(C)=CC(C)(C)N3 ?
[A] 8.96

[Q] Which pIC50 value belongs to COc1c(O)ccc2c1-c1ccc3c(c1/C(=C/c1ccccc1C)O2)C(C)=CC(C)(C)N3 ?
[A] 9.40

[Q] Which pIC50 value belongs to COc1c(O)ccc2c1-c1ccc3c(c1/C(=C/c1cccc(Oc4ccccc4)c1)O2)C(C)=CC(C)(C)N3 ?
[A] 8.72

[Q] Which pIC50 value belongs to COc1c(O)ccc2c1-c1ccc3c(c1/C(=C/c1ccccc1F)O2)C(C)=CC(C)(C)N3 ?
[A] 8.89
